System: S. aureus
procedure.text: MIC, broth microdilution
Assay type: cell-based, Staphylococcus aureus
settings: Staphylococcus aureus, S. aureus 15B196, c-ermB; read-out: MIC
MIC values by entry
Kindly provide the numeric value in µg/mL only, without the unit symbol.

| molecule | measure.name | recorded.number |
| --- | --- | --- |
| CC[C@H]1OC(=O)[C@H](C)[C@@H](OC(=O)NCCCCCCC#Cc2ccc3c(=O)c(C(=O)O)cn(C)c3c2)[C@H](C)[C@@H](O[C@@H]2O[C@H](C)C[C@H](N(C)C)[C@H]2O)[C@](C)(OC)C[C@@H](C)C(=O)[C@H](C)[C@H]2NC(=O)O[C@@]21C | MIC | 1 |
| CC[C@H]1OC(=O)[C@H](C)[C@@H](OC(=O)NCCCOCCC#Cc2ccc3c(=O)c(C(=O)O)cn(C)c3c2)[C@H](C)[C@@H](O[C@@H]2O[C@H](C)C[C@H](N(C)C)[C@H]2O)[C@](C)(OC)C[C@@H](C)C(=O)[C@H](C)[C@H]2NC(=O)O[C@@]21C | MIC | 8 |

# next molecule below
Problem: Item CC[C@H]1OC(=O)[C@H](C)[C@@H](OC(=O)NCCCCCCC#Cc2ccc3c(=O)c(C(=O)O)cn(C4CC4)c3c2)[C@H](C)[C@@H](O[C@@H]2O[C@H](C)C[C@H](N(C)C)[C@H]2O)[C@](C)(OC)C[C@@H](C)C(=O)[C@H](C)[C@H]2NC(=O)O[C@@]21C [88c] : provide MIC
Result: 8
